assayed.target: CDK2/Cyclin E1 full length (Homo sapiens (Human))
assay.overview: CDK2/Cyclin E1 full length mobility shift assay
Ki: recorded values
measured.attribute: Ki (nM)

In [3]: df
Out[3]:
                                   compound  unit_annotation  obs_value
0  CCC(NC(=O)O[C@@H]1CC[C@H](c2cc(NC(=O)Cc3cnc(C)s3)n[nH]2)C1)C(F)(F)F (single isomer, unassigned) [Example 403]               nM       1.76
1  CC[C@H](C)NC(=O)O[C@@H]1CC[C@H](c2cc(NC(=O)Cc3cccc(C)c3S(C)(=O)=O)n[nH]2)C1 [Example 372]               nM       0.85
2  CC[C@H](C)NC(=O)O[C@@H]1CC[C@H](c2cc(NC(=O)Cc3cccc4c3CN(C)C4=O)n[nH]2)C1 [Example 361]               nM       0.94

###

assayed.target: GSK3β (H350L) (Homo sapiens (Human))
Sequence (P49841 whole entry, stated change not applied): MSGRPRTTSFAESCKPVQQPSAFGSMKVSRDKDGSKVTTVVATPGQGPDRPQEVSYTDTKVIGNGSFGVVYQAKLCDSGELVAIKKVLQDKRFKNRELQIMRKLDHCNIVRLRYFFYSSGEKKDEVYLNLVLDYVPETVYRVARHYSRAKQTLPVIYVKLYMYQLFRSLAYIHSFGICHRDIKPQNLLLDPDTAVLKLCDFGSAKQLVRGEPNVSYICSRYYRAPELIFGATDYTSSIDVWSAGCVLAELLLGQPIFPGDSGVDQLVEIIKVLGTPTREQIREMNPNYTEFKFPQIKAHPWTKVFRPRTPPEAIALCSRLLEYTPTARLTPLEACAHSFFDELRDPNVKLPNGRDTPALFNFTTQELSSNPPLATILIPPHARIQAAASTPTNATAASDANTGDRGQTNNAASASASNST
condition.details: read-out: GSK3β Ki
measured.attribute: log10 of Ki (log10 of the value in nM)

>>> df
                                   molecule  obs_value
0  COc1ccc(CC(=O)Nc2cc([C@H]3CC[C@@H](OC(=O)NC(C)C)C3)[nH]n2)cc1 [Example 275]       1.73
1  CCNC(=O)O[C@@H]1CC[C@H](c2cc(NC(=O)Cc3ccc4c(cnn4C)c3)n[nH]2)C1 [Example 3]       1.00
2  COc1cc(CC(=O)Nc2cc([C@H]3CC[C@@H](OC(=O)N4CCC4(C)C)C3)[nH]n2)ccn1 [Example 146]       0.54
3  Cc1cc(CC(=O)Nc2cc([C@H]3CC[C@@H](OC(=O)NC4(C)CC4)C3)[nH]n2)on1 [Example 15]       1.47
4  COc1cc(CC(=O)Nc2cc([C@@H]3CC[C@H](OC(=O)N[C@H]4CC[C@](C)(O)CC4)C3)[nH]n2)ccn1 [Example 569]       0.63

###

assayed.target: CDK2/Cyclin E1 full length (Homo sapiens (Human), UniProt P24941)
assay.overview: CDK2/Cyclin E1 full length mobility shift assay
Type: biochemical
Ki: recorded values
measured.attribute: Ki

In [3]: df
Out[3]:
                                   compound  obs_value
0  CCC1(C)CCN1C(=O)O[C@@H]1CC[C@H](c2cc(NC(=O)Cc3cc(C)no3)n[nH]2)C1 (single isomer, unassigned) [Example 603]      70 pM
1  C[C@H]1CCN1C(=O)O[C@@H]1CC[C@H](c2cc(NC(=O)c3cncn3C)n[nH]2)C1    2570 pM
2  COc1cc(CC(=O)Nc2cc([C@@H]3CC[C@H](OC(=O)N[C@H]4CC[C@H](O)CC4)C3)[nH]n2)ccn1     370 pM
3  Cc1ccnc(CC(=O)Nc2cc([C@H]3CC[C@@H](OC(=O)NC4(C)CC4)C3)[nH]n2)c1Cl    1420 pM
4  O=C(Cc1cc(F)cc(F)c1)Nc1cc([C@@H]2CC[C@H](OC(=O)NC[C@H]3C[C@@H]3CO)C2)[nH]n1    2410 pM
5  CC1(NC(=O)O[C@@H]2CC[C@H](c3cc(NC(=O)Cc4ccc5ncccc5n4)n[nH]3)C2)CC1     190 pM
6  COc1cc(CC(=O)Nc2cc([C@@H]3CC[C@H](OC(=O)N4C[C@@](C)(O)[C@@H]4C)C3)[nH]n2)ccn1    4180 pM
7  CC[C@H](C)NC(=O)O[C@@H]1CC[C@H](c2cc(NC(=O)Cc3cnn(C)c3)n[nH]2)C1     440 pM
8  CCCNC(=O)O[C@H]1CC[C@@H](c2cc(NC(=O)Cc3ccno3)n[nH]2)C1     360 pM
9  CCN(C)C(=O)O[C@@H]1CC[C@H](c2cc(NC(=O)Cc3ccc(OC)nc3)n[nH]2)C1     570 pM

###

assayed.target: CDK2/Cyclin E1 full length (Homo sapiens (Human))
assay.overview: CDK2/Cyclin E1 full length mobility shift assay
pKi: −log10 of the molar value.
Values of pKi greater than or equal to 9 map to Met; values below map to Not met.

                                    compound  discrete_label
 0  COc1ccc(CC(=O)Nc2cc([C@H]3CC[C@@H](OC(=O)NC4(C)CCOC4)C3)[nH]n2)cc1 (single isomer, unassigned) [Example 483]             Met
 1  CC(C)(C)NC(=O)O[C@@H]1CC[C@H](c2cc(NC(=O)Cc3cc(Cl)ccn3)n[nH]2)C1 [Example 115]             Met
 2  CCCNC(=O)O[C@H]1CC[C@@H](c2cc(NC(=O)Cc3cn4c(C)c(C)sc4n3)n[nH]2)C1 [Example 200]         Not met
 3  CCCNC(=O)O[C@H]1CC[C@@H](c2cc(NC(=O)c3cn(C)nc3C)n[nH]2)C1 [Example 174]         Not met
 4  CC(CC(F)(F)F)NC(=O)O[C@@H]1CC[C@H](c2cc(NC(=O)Cc3cnn(C(C)C)c3)n[nH]2)C1 (single isomer, unassigned) [Example 408]             Met
 5  CCCNC(=O)O[C@@H]1CC[C@H](c2cc(NC(=O)c3ccc(C)nc3C)n[nH]2)C1 [Example 181]         Not met
 6  CC(C)NC(=O)O[C@@H]1CC[C@H](c2cc(NC(=O)Cc3ccc4c(cnn4C)c3)n[nH]2)C1 [Example 55]             Met
 7  CC1(C)CCN1C(=O)O[C@@H]1CC[C@H](c2cc(NC(=O)Cc3ccccc3S(C)(=O)=O)n[nH]2)C1 [Example 142]             Met
 8  CC1(C)CCN1C(=O)O[C@H]1CC[C@@H](c2cc(NC(=O)Cc3ccccc3S(C)(=O)=O)n[nH]2)C1 [Example 143]             Met
 9  CC1(NC(=O)O[C@@H]2CC[C@H](c3cc(NC(=O)Cc4ccno4)n[nH]3)C2)CCOC1 (single isomer, unassigned) [Example 474]             Met
10  CC1(C)CCCN1C(=O)O[C@@H]1CC[C@H](c2cc(NC(=O)Cc3ccon3)n[nH]2)C1 [Example 135]             Met
11  CC(CC(F)(F)F)N(C)C(=O)O[C@@H]1CC[C@H](c2cc(NC(=O)Cc3ccno3)n[nH]2)C1 (single isomer, unassigned) [Example 90]             Met

###

assayed.target: GSK3β (H350L) (Homo sapiens (Human))
condition.details: read-out: GSK3β Ki
Ki: recorded values
measured.attribute: Ki (nM)

In [3]: df
Out[3]:
                                    molecule  bound_type  obs_value
 0  CC(C)NC(=O)O[C@@H]1CC[C@H](c2cc(NC(=O)c3cnnn3C)n[nH]2)C1           >       47.6
 1  CC[C@H](C)NC(=O)O[C@@H]1CC[C@H](c2cc(NC(=O)Cc3ccc(C)cc3S(C)(=O)=O)n[nH]2)C1           =       61.4
 2  CCCNC(=O)O[C@@H]1CC[C@H](c2cc(NC(=O)Cc3ccccc3S(=O)(=O)CC)n[nH]2)C1           =       97.7
 3  CC[C@H](C)NC(=O)O[C@@H]1CC[C@H](c2cc(NC(=O)Cc3cnc(C)s3)n[nH]2)C1           =       26.4
 4  CC[C@H](C)NC(=O)O[C@@H]1CC[C@H](c2cc(NC(=O)Cc3cn4nc(C)sc4n3)n[nH]2)C1           =       28.5
 5  CCN(C)C(=O)O[C@@H]1CC[C@H](c2cc(NC(=O)Cc3ccc(OC)cc3)n[nH]2)C1           =       16.1
 6  CCCNC(=O)O[C@@H]1CC[C@H](c2cc(NC(=O)Cc3ccc(OC)cn3)n[nH]2)C1 (stereo in doubt)           =       23.9
 7  CC(C)NC(=O)O[C@@H]1CC[C@H](c2cc(NC(=O)Cc3ccc4c(cnn4C)c3)n[nH]2)C1           =       10.4
 8  Cc1cnc(CC(=O)Nc2cc([C@H]3CC[C@@H](OC(=O)NC(C)(C)C)C3)[nH]n2)o1           =       36.2
 9  CCNC(=O)O[C@@H]1CC[C@H](c2cc(NC(=O)Cc3ccc(C)nc3)n[nH]2)C1           =       18.9
10  CCCNC(=O)O[C@@H]1CC[C@H](c2cc(NC(=O)Cc3ccc4c(cnn4C)c3)n[nH]2)C1           =       9.25
11  C[C@H]1C[C@H](C)N1C(=O)O[C@@H]1CC[C@H](c2cc(NC(=O)Cc3cnn(C)c3)n[nH]2)C1           =       9.89
12  CC[C@H](C)NC(=O)O[C@@H]1CC[C@H](c2cc(NC(=O)Cc3ccccc3)n[nH]2)C1           =       69.7
13  COc1ccc(S(C)(=O)=O)c(CC(=O)Nc2cc([C@H]3CC[C@@H](OC(=O)NC4(C)CC4)C3)[nH]n2)c1           >       47.6
14  CC[C@H](C)NC(=O)O[C@@H]1CC[C@H](c2cc(NC(=O)c3cncn3C)n[nH]2)C1           >        191
15  CCCNC(=O)O[C@@H]1CC[C@H](c2cc(NC(=O)c3ccc(OC)nc3)n[nH]2)C1           >       95.3
16  Cc1ncc(CC(=O)Nc2cc([C@@H]3CC[C@H](OC(=O)N[C@H]4CC[C@](C)(O)CC4)C3)[nH]n2)s1           =       4.35
